All values here come from IntAct's records for PubMed 28258151.

B1: Complement factor H (Homo sapiens), P08603 (parent)
chain: MRLLAKIICLMLWAICVAEDCNELPPRRNTEILTGSWSDQTYPEGTQAIYKCRPGYRSLGNVIMVCRKGEWVALNPLRKCQKRPCGHPGDTPFGTFTLTGGNVFEYGVKAVYTCNEGYQLLGEINYRECDTDGWTNDIPICEVVKCLPVTAPENGKIVSSAMEPDREYHFGQAVRFVCNSGYKIEGDEEMHCSDDGFWSKEKPKCVEISCKSPDVINGSPISQKIIYKENERFQYKCNMGYEYSERGDAVCTESGWRPLPSCEEKSCDNPYIPNGDYSPLRIKHRTGDEITYQCRNGFYPATRGNTAKCTSTGWIPAPRCTLKPCDYPDIKHGGLYHENMRRPYFPVAVGKYYSYYCDEHFETPSGSYWDHIHCTQDGWSPAVPCLRKCYFPYLENGYNQNYGRKFVQGKSIDVACHPGYALPKAQTTVTCMENGWSPTPRCIRVKTCSKSSIDIENGFISESQYTYALKEKAKYQCKLGYVTADGETSGSITCGKDGWSAQPTCIKSCDIPVFMNARTKNDFTWFKLNDTLDYECHDGYESNTGSTTGSIVCGYNGWSDLPICYERECELPKIDVHLVPDRKKDQYKVGEVLKFSCKPGFTIVGPNSVQCYHFGLSPDLPICKEQVQSCGPPPELLNGNVKEKTKEEYGHSEVVEYYCNPRFLMKGPNKIQCVDGEWTTLPVCIVEESTCGDIPELEHGWAQLSSPPYYYGDSVEFNCSESFTMIGHRSITCIHGVWTQLPQCVAIDKLKKCKSSNLIILEEHLKNKKEFDHNSNIRYRCRGKEGWIHTVCINGRWDPEVNCSMAQIQLCPPPPQIPNSHNMTTTLNYRDGEKVSVLCQENYLIQEGEEITCKDGRWQSIPLCVEKIPCSQPPQIEHGTINSSRSSQESYAHGTKLSYTCEGGFRISEENETTCYMGKWSSPPQCEGLPCKSPPEISHGVVAHMSDSYQYGEEVTYKCFEGFGIDGPAIAKCLGEKWSHPPSCIKTDCLSLPSFENAIPMGEKKDVYKAGEQVTYTCATYYKMDGASNVTCINSRWTGRPTCRDTSCVNPPTVQNAYIVSRQMSKYPSGERVRYQCRSPYEMFGDEEVMCLNGNWTEPPQCKDSTGKCGPPPPIDNGDITSFPLSVYAPASSVEYQCQNLYQLEGNKRITCRNGQWSEPPKCLHPCVISREIMENYNIALRWTAKQKLYSRTGESVEFVCKRGYRLSSRSHTLRTTCWDGKLEYPTCAKR

# Variants of: B1
# protocol.conditions: with sdre_staam sdrE
reported.endpoint: effect of a mutation on the interaction

Here are 8 variants together with their reported answers.
>>> result("R1206A")
"disrupting interaction"
>>> result("W1219A")
"with no effect"
>>> result("S1209A")
"decreasing interaction"
>>> result("Y1225A")
"increasing interaction"
>>> result("D1220A")
"with no effect"
>>> result("L1207A")
"decreasing interaction"
>>> result("P1226A")
"decreasing interaction"
>>> result("E1224A")
"increasing interaction"

Look at this variant and give its reported effect of a mutation on the interaction. `S1208A` disrupting interaction
